assay: IUF_NPC1b_proliferation_BrdU_72hr: Leibniz Research Institute for Environmental Medicine (IUF) 72-hour Neural Progenitor Cell Bromodeoxyuridine (BrdU) Proliferation Assay (NPC1b) (AID 2284207)
Activity calls are given as the source filed them. Rule for the calls: active = hit-call score of the fitted dose curve at least 0.9, where 1 is the maximum; inactive = score below 0.9.
readout-name: AC50

Record excerpt, results attached:
Ask: # lookup: AC50 of CCOP(=O)(NC(C)C)Oc1ccc(SC)c(C)c1 (stereo not given)
Reply: 27.9 µM (active)

Ask: Please report the recorded AC50 for `CCOP(=O)(OCC)Oc1cc(C)nc(C(C)C)n1` .
Reply: inactive

Ask: Which AC50 is reported for this compound? `CSC1=N[C@@](C)(c2ccccc2)C(=O)N1Nc1ccccc1`
Reply: inactive

Ask: I'd like to know its AC50. The compound in question is `CCOP(=S)(OCC)Oc1cc(C)nc(C(C)C)n1`
Reply: inactive

---
Ask: So what's the measured AC50 for this one? CCOC(=O)CC(SP(=O)(OC)OC)C(=O)OCC (stereo not given)
Reply: inactive
